Where these numbers come from: ChEMBL document CHEMBL1201862

Please provide measured GI50 for the entries that follow.
Tested on: OVCAR-3
assayNotes: NCI tumour cell line growth inhibition, 48 h
Activity calls are given as the source filed them. No stated cut-off is given here; in the data, active = GI50 up to about 1.1 µM and inactive = higher.

Lab entry: OVCAR-3 assay, compound `CC1(C)Cc2c(oc3ncnc(N)c23)CS1` , GI50 = > 100 µM (inactive)

Lab entry: OVCAR-3 assay, compound `COc1cc2c(NCCCCCCO[N+](=O)[O-])ncnc2c(OC)c1OC` , GI50 = 23.1 µM (inactive)

Lab entry: OVCAR-3 assay, compound CN1C(C)(C)CC(=O)C(Br)C1(C)C (stereo not drawn) , GI50 = > 100 µM (inactive)

----------
System: HT-29
assayNotes: NCI tumour cell line growth inhibition, 48 h
Calls of active or inactive are those of the source. No stated cut-off is given here; in the data, active = GI50 up to about 1.1 µM and inactive = higher.
valueKind: GI50

# compound CC1CC[C@@]2(OC1)OC1C[C@H]3[C@@H]4CC[C@H]5CC(OC6OC(CO)C(OC7OC(CO)C(O)C(O)C7O)C(O)C6O)CCC5(C)[C@H]4CCC3(C)C1[C@@H]2C (some centres not stated) ; its GI50 = 7.35 µM (inactive)

# compound `COC(=O)[C@@]1(Cc2ccc(O)cc2)C[C@@H]2Cc3ccccc3N2N1` ; its GI50 = 35.5 µM (inactive)

# compound CN1C(C)(C)CC(=O)C(Br)C1(C)C (configuration not stated) ; its GI50 = > 100 µM (inactive)

# compound `CN(C)Cc1cc(C(=O)/C=C/c2ccc(Cl)cc2Cl)cc(CN(C)C)c1O` ; its GI50 = 2.07 µM (inactive)

# compound `O=c1c2ccccc2nc(-c2ccccc2)n1NC(=S)Nc1ccccc1` ; its GI50 = > 100 µM (inactive)

# compound `CSC(=S)Nc1cc(C)ccn1` ; its GI50 = > 100 µM (inactive)

# compound `O=C1/C(=C/c2ccco2)NC(=S)N1CN1CCCCC1` ; its GI50 = 25.8 µM (inactive)

# compound COc1cc2c(cc1OC)C1C(O)C(OC)C(Br)C3(Br)CCN(C2)C13 (configuration not stated) ; its GI50 = > 100 µM (inactive)

# compound `NC(=O)c1ccc[n+](C2=C([N-]S(=O)(=O)c3ccccc3)C(=O)c3ccccc3C2=O)c1` ; its GI50 = 17.1 µM (inactive)

# compound `CN(C)CCCCN1CCc2c(n(C)c3ccccc23)C1=O` ; its GI50 = 24.3 µM (inactive)

# compound CCCCCCCCCCCCCP(=O)(NCC(N)=O)OCC (configuration not stated) ; its GI50 = 17.2 µM (inactive)

# compound CC1SC2=NC3=C(c4ccccc4C3=O)C(c3ccc(F)cc3)N2C1=O (configuration not stated) ; its GI50 = > 100 µM (inactive)
